// data source = patent US4579822A

Target: DHAK (II) (Schizosaccharomyces pombe, UniProt O74215)
Construct: DHAK (I) and DHAK (II) obtained from Schizosaccharomyces pombe IFO 0354; made in house; host or cells: Schizosaccharomyces pombe IFO 0354 (natural producer, not recombinant); cell extract, DEAE-Sepharose fraction at 0.16 M KCl, then Blue-Sepharose
Sequence (O74215 whole entry): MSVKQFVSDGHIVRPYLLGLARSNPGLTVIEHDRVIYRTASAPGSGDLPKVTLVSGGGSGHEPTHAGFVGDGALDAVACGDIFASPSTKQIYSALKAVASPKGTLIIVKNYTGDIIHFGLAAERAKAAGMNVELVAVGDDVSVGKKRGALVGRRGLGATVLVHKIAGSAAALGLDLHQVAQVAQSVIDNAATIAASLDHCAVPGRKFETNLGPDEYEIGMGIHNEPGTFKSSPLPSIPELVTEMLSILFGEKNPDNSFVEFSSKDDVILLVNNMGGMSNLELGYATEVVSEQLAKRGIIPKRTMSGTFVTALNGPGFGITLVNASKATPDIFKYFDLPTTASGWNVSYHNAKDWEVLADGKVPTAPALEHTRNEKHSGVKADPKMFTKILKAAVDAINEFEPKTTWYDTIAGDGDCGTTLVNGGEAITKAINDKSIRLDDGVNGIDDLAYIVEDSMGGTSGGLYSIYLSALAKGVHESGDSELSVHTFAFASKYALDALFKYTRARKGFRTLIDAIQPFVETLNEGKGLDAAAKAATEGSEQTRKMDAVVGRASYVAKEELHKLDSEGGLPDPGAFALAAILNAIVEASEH
Test: Specificity of DHAK (II) for phosphate donor
Type: biochemical, Schizosaccharomyces pombe IFO 0354
Conditions: Adenosine 5'-triphosphate = 100%
The following molecules are shown together with reported Relative activity DHAK (II) (phosphate donor) values.
Please reply with the bare figure in % and do not write the unit itself.

Worked cases, Relative activity DHAK (II) (phosphate donor) given:
Molecule	Readout Number
Nc1nc2c(ncn2[C@@H]2O[C@H](COP(=O)(O)OP(=O)(O)OP(=O)(O)O)[C@@H](O)[C@H]2O)c(=O)[nH]1 [Guanosine 5'-triphosphate]	0
O=P(O)(O)OP(=O)(O)OP(=O)(O)OC[C@H]1O[C@@H](n2cnc3c(O)ncnc32)[C@H](O)[C@@H]1O [Inosine 5'-triphosphate]	0
Nc1ccn([C@@H]2O[C@H](COP(=O)(O)OP(=O)(O)OP(=O)(O)O)[C@@H](O)[C@H]2O)c(=O)n1 [Cytidine 5'-triphosphate]	0
O=c1ccn([C@@H]2O[C@H](COP(=O)(O)OP(=O)(O)OP(=O)(O)O)[C@@H](O)[C@H]2O)c(=O)[nH]1 [Uridine 5'-triphosphate]	3.6

Below: the item to evaluate.
Form field: reported Relative activity DHAK (II) (phosphate donor) of Nc1ncnc2c1ncn2[C@@H]1O[C@H](COP(=O)(O)OP(=O)(O)OP(=O)(O)O)[C@@H](O)[C@H]1O [Adenosine 5'-triphosphate]
100

----------
Target: DHAK (I) (Schizosaccharomyces pombe, UniProt O13902)
Construct: DHAK (I) and DHAK (II) obtained from Schizosaccharomyces pombe IFO 0354; made in house; host or cells: Schizosaccharomyces pombe IFO 0354 (natural producer, not recombinant); cell extract, DEAE-Sepharose fraction at 0.12 M KCl, then Blue-Sepharose
Sequence (O13902 1-580): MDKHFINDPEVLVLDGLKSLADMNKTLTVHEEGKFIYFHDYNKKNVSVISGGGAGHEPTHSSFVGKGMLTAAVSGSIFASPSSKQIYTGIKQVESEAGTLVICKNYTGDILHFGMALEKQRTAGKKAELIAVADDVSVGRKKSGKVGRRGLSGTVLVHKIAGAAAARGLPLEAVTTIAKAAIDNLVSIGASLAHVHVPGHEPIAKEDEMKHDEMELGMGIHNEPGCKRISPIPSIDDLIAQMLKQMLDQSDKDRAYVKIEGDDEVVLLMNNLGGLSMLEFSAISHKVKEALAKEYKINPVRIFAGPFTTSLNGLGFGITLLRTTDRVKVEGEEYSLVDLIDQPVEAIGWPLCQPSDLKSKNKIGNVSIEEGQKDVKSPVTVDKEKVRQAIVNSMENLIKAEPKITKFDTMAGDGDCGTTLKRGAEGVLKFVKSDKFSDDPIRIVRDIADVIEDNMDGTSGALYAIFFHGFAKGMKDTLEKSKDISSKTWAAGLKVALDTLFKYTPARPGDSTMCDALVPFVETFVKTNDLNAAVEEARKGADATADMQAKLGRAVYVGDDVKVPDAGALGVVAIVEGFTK
Assay: Specificity of DHAK (I) for divalent metal cations
Assay type: biochemical, Schizosaccharomyces pombe IFO 0354
Details: each divalent metal cation 4 mM; MgSO4 = 100%
Endpoint Name: Relative activity DHAK (I) (metal cation) (%)
Please reply with the bare figure in % and do not write the unit itself.

Worked cases, Relative activity DHAK (I) (metal cation) given:
[Cl-].[Cl-].[Co+2] 29
[Cl][Ni][Cl] 0
[Ca+2].[Cl-].[Cl-] 125
[Cl][Mn][Cl] 15

Below: the item to evaluate.
Form field: reported Relative activity DHAK (I) (metal cation) of O=S(=O)([O-])[O-].[Mg+2]
100
